target: SHP2 (Homo sapiens, UniProt Q06124); construct: SHP2 (full length, diluted to 100 pM final concentration in reaction buffer, BPS bioscience, US); purchased BPS bioscience, US; assay: Phosphatase assay (PTPase assay, DiFMUP substrate); assay type: biochemical; conditions: full length SHP2 100 pM activated with SHP2 activating peptide, DiFMUP 80 µM, 2 hours; read-out: PTPase assay (IC50)
Sequence (Q06124 whole entry): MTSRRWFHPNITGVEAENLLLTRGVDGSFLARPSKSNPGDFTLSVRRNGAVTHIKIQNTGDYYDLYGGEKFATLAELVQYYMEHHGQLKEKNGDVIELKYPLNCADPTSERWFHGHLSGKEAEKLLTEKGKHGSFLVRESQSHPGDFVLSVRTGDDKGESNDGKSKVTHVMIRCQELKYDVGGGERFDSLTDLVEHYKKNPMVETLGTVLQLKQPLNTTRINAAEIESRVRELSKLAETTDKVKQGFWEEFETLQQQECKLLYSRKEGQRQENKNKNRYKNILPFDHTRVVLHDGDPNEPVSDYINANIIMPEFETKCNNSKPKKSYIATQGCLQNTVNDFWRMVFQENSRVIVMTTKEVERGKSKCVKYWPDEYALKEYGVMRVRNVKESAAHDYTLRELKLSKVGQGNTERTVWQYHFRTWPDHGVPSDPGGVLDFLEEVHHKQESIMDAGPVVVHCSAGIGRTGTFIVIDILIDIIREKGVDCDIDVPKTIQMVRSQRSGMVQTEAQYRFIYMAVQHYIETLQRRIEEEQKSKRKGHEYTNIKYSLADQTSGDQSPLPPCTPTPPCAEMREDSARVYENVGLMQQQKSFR
pIC50: −log10 of the molar value.
Examples of compounds with documented pIC50 follow.

Study these solved cases before continuing.
| Compound | Readout value |
| --- | --- |
| C[C@@H]1OCC2(CCN(c3cnc(Sc4ccc5ncn(CC6(C)CCOCC6)c(=O)c5c4Cl)cn3)CC2)[C@@H]1N | > 8.52 |
| COC(C)(C)Cn1cnc2ccc(Sc3cnc(N4CCC5(CC4)CO[C@@H](C)[C@H]5N)cn3)c(Cl)c2c1=O | > 8.52 |
| Cn1ccc2ccc(Sc3ncc(N4CCC5(CC4)Cc4ccccc4[C@H]5N)nc3N)c(Cl)c2c1=O | > 8.52 |

Prompt line: Report pIC50 for "COC(C)(C)Cn1cnc2ccc(Sc3ncc(N4CCC5(CC4)CO[C@@H](C)[C@H]5N)nc3N)c(Cl)c2c1=O" tested on SHP2 (Homo sapiens, UniProt Q06124).
Response line: 7.00 to 8.52

Prompt line: Likewise for "COC(C)(C)Cn1cnc2ccc(Sc3ncc(N4CCC5(CC4)Cc4ccccc4[C@H]5N)nc3N)c(Cl)c2c1=O" ?
Response line: > 8.52
